Below: a set of entries, each annotated with reported pEC50.
- Measured target: human GcgR (Homo sapiens, UniProt P47871)
- Sequence (P47871 26-477): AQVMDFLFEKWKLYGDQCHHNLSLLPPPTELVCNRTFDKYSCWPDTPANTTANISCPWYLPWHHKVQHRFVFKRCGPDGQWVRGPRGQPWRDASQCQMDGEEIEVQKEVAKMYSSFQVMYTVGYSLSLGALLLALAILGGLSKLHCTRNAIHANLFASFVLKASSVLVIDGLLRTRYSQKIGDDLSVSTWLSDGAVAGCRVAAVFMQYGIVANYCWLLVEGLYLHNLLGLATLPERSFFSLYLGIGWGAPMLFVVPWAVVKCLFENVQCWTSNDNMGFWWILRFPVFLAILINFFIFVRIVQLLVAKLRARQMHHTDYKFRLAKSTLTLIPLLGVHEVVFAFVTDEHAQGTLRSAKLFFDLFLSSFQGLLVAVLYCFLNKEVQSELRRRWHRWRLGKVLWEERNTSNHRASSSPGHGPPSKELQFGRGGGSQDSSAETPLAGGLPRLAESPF
- Measurement description: Functional cAMP activity in the presence of 1% HSA
- Type: cell-based
- Condition context: read-out: cAMP Rel EC50, hGcgR
pEC50: −log10 of the molar value. Starred links: 1 amine or outer side, 2 acyl side, 3 side chain; linkers in the order of their positions; H or OH if unused. Non-standard residues stand in square brackets, D forms with d. Groups on a side chain read outwards from the residue. No end group written: not given here. *: point of attachment. C20 diacid = O=C(O)CCCCCCCCCCCCCCCCCCC(=O)*; C18 diacid = O=C(O)CCCCCCCCCCCCCCCCC(=O)*; αMePhe(2-F) = C[C@](N)(Cc1ccccc1F)C(=O)O; γGlu = O=C(O)[C@H](CCC(=O)[*:2])N[*:1]; αMe4Pal = C[C@](N)(Cc1ccncc1)C(=O)O; αMeY = C[C@](N)(Cc1ccc(O)cc1)C(=O)O; 4Pal = N[C@@H](Cc1ccncc1)C(=O)O; αMeL = CC(C)C[C@](C)(N)C(=O)O; αMeS = C[C@](N)(CO)C(=O)O; Orn = NCCC[C@H](N)C(=O)O; AEEA = NCCOCCOCC(=O)O; Aib = CC(C)(N)C(=O)O
Value type: pEC50

substance="H-Y[Aib]QGTFTSDFS[Orn][αMeL]LDKK([AEEA-γGlu-C18 diacid])AQ[Aib]AFIEYLLE[Aib]GESSGAPPPSGS-NH2 [Example 240]" measured_target="human GcgR (Homo sapiens, UniProt P47871)" measured_number=6.28
substance="Y[Aib]QGT[αMePhe(2-F)]TSD[4Pal][αMeS]ILLD[Orn]K([γGlu-γGlu-C18 diacid])AQ[Aib][Orn]FI[dE]YLIEGGPSSGEPPPEGEEE-NH2 [Example 606]" measured_target="human GcgR (Homo sapiens, UniProt P47871)" measured_number=6.32
substance="Y[Aib]QGT[αMePhe(2-F)]TSD[4Pal][αMeS]I[αMeL]LD[Orn]K([γGlu-γGlu-C18 diacid])AQ[αMe4Pal]EFI[dE][αMeY]LIEGGPSSGAPPPSGE-NH2 [Example 1150]" measured_target="human GcgR (Homo sapiens, UniProt P47871)" measured_number=6.79
substance="H-Y[Aib]QGTFTSD[4Pal]SQ[αMeL]LDKK([γGlu-γGlu-C18 diacid])AQ[αMe4Pal]AFIEYLIAGGESSGAPPPSGSEE-NH2 [Example 963]" measured_target="human GcgR (Homo sapiens, UniProt P47871)" measured_number=6.05
substance="Y[Aib]QGT[αMePhe(2-F)]TSD[4Pal][αMeS]I[αMeL]LD[Orn]K([AEEA-γGlu-C18 diacid])AQ[αMe4Pal]EFI[dE][αMeY]LIEGGPPS[Aib]EPPP[Orn]GE-NH2 [Example 1193]" measured_target="human GcgR (Homo sapiens, UniProt P47871)" measured_number=6.69
substance="H-Y[Aib]QGT[αMePhe(2-F)]TSD[4Pal]SI[αMeL]LD[Orn]K([AEEA-γGlu-C18 diacid])AQ[αMe4Pal]EFI[dE][αMeY]LLEGGPSSGAPPPSGS-NH2 [Example 641]" measured_target="human GcgR (Homo sapiens, UniProt P47871)" measured_number=6.35
substance="H-Y[Aib]QGT[αMePhe(2-F)]TSDYSKLLDKIAQK([AEEA-γGlu-C20 diacid])AFIEYLIEGGPSSGAPPPEGE-NH2 [Example 357]" measured_target="human GcgR (Homo sapiens, UniProt P47871)" measured_number=5.74
substance="H-Y[Aib]QGT[αMePhe(2-F)]TSD[4Pal][αMeS]I[αMeL]LD[Orn]K([AEEA-γGlu-γGlu-C18 diacid])AQ[αMe4Pal]EFI[dE][αMeY]LIEGGPSSGAPPPSGE-NH2 [Example 1176]" measured_target="human GcgR (Homo sapiens, UniProt P47871)" measured_number=6.64
substance="H-Y[Aib]QGTFTSD[4Pal]SQ[αMeL]LD[Orn]K([γGlu-γGlu-C18 diacid])AQ[Aib]AFIE[αMeY]LLEGGPSSGAPPPSGSEE-NH2 [Example 946]" measured_target="human GcgR (Homo sapiens, UniProt P47871)" measured_number=5.71
substance="H-Y[Aib]QGTFTSDFSK[αMeL]LDKK([AEEA-γGlu-C20 diacid])AQ[Aib]AFIEYLLAGGPSSGEPPPGEG-NH2 [Example 31]" measured_target="human GcgR (Homo sapiens, UniProt P47871)" measured_number=5.76
substance="H-Y[Aib]QGT[αMePhe(2-F)]TSD[4Pal][αMeS]I[αMeL]LD[Orn]K([γGlu-γGlu-C18 diacid])AQ[Aib][Orn]FI[dE]YLLEGGPSSGEPPPSGTE-NH2 [Example 532]" measured_target="human GcgR (Homo sapiens, UniProt P47871)" measured_number=6.80

Every entry's value here was drawn from patent US20240270821A1.
